# Method summary: Plasma pharmacokinetics of repeat-dose intravenous micafungin in young infants
# Assay type: in vivo, human
# Condition: human, plasma, iv, Vdss/wt, median (range), overall (7 and 10 mg/kg/day groups), day 4, n=12
*1 amine or outer side, *2 acyl side, *3 side chain or, on linkers, in order; H or OH if unused. Where a SMILES comes first, the peptide text is derived from it. Bridges are numbered along the chain shown (N, C = ends). [ ]: non-standard residue; d: D form. The star is where a group is joined. hTyr(3S-OH,4S-OH,3'-OSO3H) = N[C@H](C(=O)O)[C@H](O)[C@@H](O)c1ccc(O)c(OS(=O)(=O)O)c1; Orn(4R-OH,5R-OH) = O=C([C@H](C[C@@H](O)[C@@H](O)N[*:3])N[*:1])[*:2]; Pro(3S-OH,4S-Me) = C[C@H]1CN[C@H](C(=O)O)[C@H]1O; X1 = CCCCCOc1ccc(-c2cc(-c3ccc(C(=O)*)cc3)no2)cc1; Gln(3R-OH) = NC(=O)C[C@@H](O)[C@H](N)C(=O)O; Hyp = O=C(O)[C@@H]1C[C@@H](O)CN1
Recorded metric: Vd (L/kg)
Write the value in L/kg as a bare number.

Vd recorded for this compound, CCCCCOc1ccc(-c2cc(-c3ccc(C(=O)N[C@H]4C[C@@H](O)[C@@H](O)NC(=O)[C@@H]5[C@@H](O)[C@@H](C)CN5C(=O)[C@H]([C@H](O)CC(N)=O)NC(=O)[C@H]([C@H](O)[C@@H](O)c5ccc(O)c(OS(=O)(=O)O)c5)NC(=O)[C@@H]5C[C@@H](O)CN5C(=O)[C@H]([C@@H](C)O)NC4=O)cc3)no2)cc1 [micafungin] (X1-[Orn(4R-OH,5R-OH)]T[Hyp][hTyr(3S-OH,4S-OH,3'-OSO3H)][Gln(3R-OH)][Pro(3S-OH,4S-Me)]; lactam 1-C) , is 0.503
